# Test system: LNCaP cells
# EXPERIMENTAL PROTOCOL: LNCaP cell viability assay (MTS)
# Type: cell-based
# TEST CONTEXT: Homo sapiens, LNCaP, 48 h, LNCaP cell line
RECORDED ENDPOINT: GI50 (µM)

> print(dat)
                                   compound  readout.value
1  CN(C)CC(NS(=O)(=O)c1ccc(OC(F)(F)F)cc1)c1ccc(Cl)c(Cl)c1 (centres unmarked) [Compound 147]           19.5
2  Cc1ccc(CNS(=O)(=O)c2ccc(OC(F)(F)F)cc2)c(OCC(C)C)c1 [Compound 74]             60
3  CC(O)COc1ccccc1CNS(=O)(=O)c1ccc(OC(F)(F)F)cc1 (centres unmarked) [Compound 11]           30.9
4  O=[N+]([O-])c1cc(S(=O)(=O)NCC2(c3ccc(Cl)c(Cl)c3)CC2)ccc1OC(F)(F)F [Compound 232]           31.1
5  O=S(=O)(NC(c1ccc(Cl)cc1)C1CCCC1)c1ccc(OC(F)(F)F)cc1 (centres unmarked) [Compound 86]             75
6  CN(C)CC(NS(=O)(=O)c1ccc(OC(F)(F)F)cc1N)c1ccc(Cl)c(Cl)c1 (centres unmarked) [Compound 155]           21.3
7  NC[C@H](NS(=O)(=O)c1ccc(OC(F)(F)F)cc1)c1ccccc1 [Compound 116]           51.2
8  CCC(C#N)Oc1cccc(CNS(=O)(=O)c2ccc(OC(F)(F)F)cc2)c1 (centres unmarked) [Compound 52]             72
